System: C. mucofaciens
Assay: Tier 1 Anaerobic MIC Assay
Assay type: cell-based, Corynebacterium mucofaciens (clinical isolate)
Details: anaerobic, 37° C. overnight, O.D. 600
Method: 1. Tier 1 Anaerobic MIC Assay The data in Table 2 above was generated with the following test method. The purpose of this assay is to determine if a compound or formulation has an antimicrobial effect in vitro. […] In row A of a 96 deep well plate pipette 180 ul of sterile BHI with 1% Tween 80 as a negative growth control. […] The next day read the O.D. 600 on a plate reader. […]
Readings of microbial inhibition concentration (MIC) for the listed molecules
Quick reminder: number only, in ppm, skip the unit.

Illustrative cases are given below, each with its answer.
| Molecule | microbial inhibition concentration (MIC) [ppm] |
| --- | --- |
| CCCCC(CC)COCC(O)CO (stereo not drawn) | 12500 |
| CCCCCCCCC(CO)CCCCCC (stereo not drawn) | 6062 |

Next molecule, microbial inhibition concentration (MIC) to be filled in.
Entry C=CCCCCCCCCC(=O)N[C@@H](Cc1ccccc1)C(=O)O [Sepiwhite] — recorded microbial inhibition concentration (MIC) = 2000
